assay: Pharmacokinetic study, intravenous bolus injection in rats; type: in vivo; settings: Sprague Dawley, plasma, rat, dose 0.2 mg/kg, 0.5 hour post dose, read-out: Concentration in Rat Plasma after Bolus Injection, Mean
reported-property: concentration at 0.5 hour (ng/mL)
Kindly provide the numeric value in ng/mL only, without the unit symbol.

Entry CC1=C[C@H]2[C@@]3(O)[C@H](C)C[C@]4(OC(=O)[C@@H](N)CC5CCCCC5)[C@H]([C@@H]3C=C(CO)C[C@]2(O)C1=O)C4(C)C [Compound K101-C1327] , concentration at 0.5 hour reported as 43.6

###

experiment: Pharmacokinetic study, intravenous bolus injection in rats; format: in vivo; details: Sprague Dawley, plasma, rat, dose 0.1 mg/kg, 0.25 hour post dose, read-out: Concentration in Rat Plasma after Bolus Injection, Mean
reported-property: concentration at 0.25 hour

Entry "CC1=C[C@H]2[C@@]3(O)[C@H](C)C[C@]4(OC(=O)[C@@H](N)CC5CCCCC5)[C@H]([C@@H]3C=C(CO)C[C@]2(O)C1=O)C4(C)C" , concentration at 0.25 hour reported as 28.7 ng/mL
